From: ChEMBL document CHEMBL4371076

- system-under-test: Sodium channel protein type 9 subunit alpha (Homo sapiens, UniProt Q15858)
- Sequence (Q15858 whole entry): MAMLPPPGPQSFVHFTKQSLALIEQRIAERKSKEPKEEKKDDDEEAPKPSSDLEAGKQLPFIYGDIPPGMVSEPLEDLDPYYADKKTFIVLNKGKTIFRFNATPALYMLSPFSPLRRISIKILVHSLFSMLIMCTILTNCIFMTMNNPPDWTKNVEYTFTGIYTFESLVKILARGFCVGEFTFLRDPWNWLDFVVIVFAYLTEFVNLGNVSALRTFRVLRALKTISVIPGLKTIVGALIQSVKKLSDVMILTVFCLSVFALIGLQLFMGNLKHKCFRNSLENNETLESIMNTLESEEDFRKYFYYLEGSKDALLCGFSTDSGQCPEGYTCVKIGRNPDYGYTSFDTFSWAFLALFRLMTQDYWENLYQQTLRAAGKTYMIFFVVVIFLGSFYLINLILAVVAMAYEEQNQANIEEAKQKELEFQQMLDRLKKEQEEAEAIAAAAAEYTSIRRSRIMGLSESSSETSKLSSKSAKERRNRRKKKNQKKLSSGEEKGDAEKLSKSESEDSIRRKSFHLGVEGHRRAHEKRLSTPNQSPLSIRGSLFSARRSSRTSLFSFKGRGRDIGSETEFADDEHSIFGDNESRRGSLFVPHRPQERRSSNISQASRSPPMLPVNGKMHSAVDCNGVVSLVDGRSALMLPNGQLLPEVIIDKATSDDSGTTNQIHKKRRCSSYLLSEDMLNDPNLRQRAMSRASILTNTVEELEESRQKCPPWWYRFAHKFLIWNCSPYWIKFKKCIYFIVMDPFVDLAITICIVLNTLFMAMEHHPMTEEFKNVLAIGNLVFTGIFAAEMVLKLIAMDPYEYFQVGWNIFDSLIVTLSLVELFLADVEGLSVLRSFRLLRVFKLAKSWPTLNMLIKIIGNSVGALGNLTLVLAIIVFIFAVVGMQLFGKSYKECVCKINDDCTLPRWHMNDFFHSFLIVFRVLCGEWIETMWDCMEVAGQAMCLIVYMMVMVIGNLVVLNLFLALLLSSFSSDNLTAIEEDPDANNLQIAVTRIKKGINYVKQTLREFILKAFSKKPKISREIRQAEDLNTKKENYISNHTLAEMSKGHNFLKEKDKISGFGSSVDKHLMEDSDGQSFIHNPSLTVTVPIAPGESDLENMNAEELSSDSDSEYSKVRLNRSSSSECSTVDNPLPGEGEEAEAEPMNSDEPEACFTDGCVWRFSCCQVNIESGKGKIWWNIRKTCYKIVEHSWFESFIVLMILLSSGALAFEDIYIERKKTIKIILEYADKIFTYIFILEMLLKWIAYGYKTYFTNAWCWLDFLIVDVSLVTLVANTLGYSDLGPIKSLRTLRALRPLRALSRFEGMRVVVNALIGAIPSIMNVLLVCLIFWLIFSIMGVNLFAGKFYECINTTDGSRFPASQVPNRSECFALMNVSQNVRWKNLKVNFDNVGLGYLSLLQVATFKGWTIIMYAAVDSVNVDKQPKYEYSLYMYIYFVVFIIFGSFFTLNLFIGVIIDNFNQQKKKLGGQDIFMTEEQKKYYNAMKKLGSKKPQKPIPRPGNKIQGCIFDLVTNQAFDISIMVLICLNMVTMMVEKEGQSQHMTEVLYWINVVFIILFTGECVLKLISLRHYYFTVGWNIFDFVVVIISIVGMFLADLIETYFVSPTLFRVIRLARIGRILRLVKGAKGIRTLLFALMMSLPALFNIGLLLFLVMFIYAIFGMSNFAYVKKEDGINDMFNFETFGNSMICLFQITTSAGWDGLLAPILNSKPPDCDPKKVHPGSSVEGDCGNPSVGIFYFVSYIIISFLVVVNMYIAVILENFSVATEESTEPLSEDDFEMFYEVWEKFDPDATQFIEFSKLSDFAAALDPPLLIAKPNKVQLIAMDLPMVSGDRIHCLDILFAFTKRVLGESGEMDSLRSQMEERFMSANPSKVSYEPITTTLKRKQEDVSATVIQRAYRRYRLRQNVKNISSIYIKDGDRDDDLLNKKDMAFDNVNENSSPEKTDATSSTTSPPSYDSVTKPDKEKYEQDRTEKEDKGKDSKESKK
- protocol-notes: Inhibition of human Nav1.7 expressed in HEK293 cells after 600 secs at -60 mV holding potential by ion works barracuda population patch clamp method
- Assay type: cell-based
recorded-metric: IC50 (nM)

structure_smiles=CC(C)COc1ccc(-c2nn(C)c3cc(C(=O)NS(C)(=O)=O)ccc23)cn1 recorded_metric=IC50 result_units=nM operator_symbol== assay_value=314
structure_smiles=CC(C)COc1ncc(-c2cn(C)c3cc(C(=O)NS(=O)(=O)C4CC4)c(F)cc23)cc1Cl recorded_metric=IC50 result_units=nM operator_symbol== assay_value=230
structure_smiles=Cn1cc(-c2ccc(C(F)(F)F)cc2)c2ccc(C(=O)NS(=O)(=O)c3ccc(F)c(F)c3)cc21 recorded_metric=IC50 result_units=nM operator_symbol=> assay_value=3000
structure_smiles=Cn1cc(-c2ccc(OC(F)(F)F)cc2)c2ccc(C(=O)NS(C)(=O)=O)cc21 recorded_metric=IC50 result_units=nM operator_symbol== assay_value=80
structure_smiles=Cn1cc(-c2cccnc2)c2ccc(C(=O)NS(C)(=O)=O)cc21 recorded_metric=IC50 result_units=nM operator_symbol=> assay_value=3000
structure_smiles=Cn1cc(-c2cnc(OCC(C)(C)O)c(Cl)c2)c2ccc(C(=O)NS(C)(=O)=O)cc21 recorded_metric=IC50 result_units=nM operator_symbol=> assay_value=30000
structure_smiles=CC(C)COc1ncc(-c2cn(C)c3cc(C(=O)NS(C)(=O)=O)ccc23)cc1C#N recorded_metric=IC50 result_units=nM operator_symbol== assay_value=70
structure_smiles=COc1cc(-c2cn(C)c3cc(C(=O)NS(=O)(=O)C4CC4)ccc23)cnc1OCC(C)C recorded_metric=IC50 result_units=nM operator_symbol== assay_value=85
structure_smiles=CC(C)COc1ncc(-c2n[nH]c3cc(C(=O)NS(C)(=O)=O)ccc23)cc1Cl recorded_metric=IC50 result_units=nM operator_symbol== assay_value=280

----------
The following compounds are shown together with reported fraction unbound values.
- protocol-notes: Fraction unbound in mouse DRG neurons
- Type: ADME, cell-based, DRG neuron
recorded-metric: fraction unbound

structure_smiles=CC(C)COc1ncc(-c2cn(C)c3cc(C(=O)NS(C)(=O)=O)ccc23)cc1Cl assay_value=0.035
structure_smiles=CC(C)COc1ccc(-c2cn(C)c3cc(C(=O)NS(C)(=O)=O)c(F)cc23)cn1 assay_value=0.085

----------
- protocol-notes: Plasma concentration in CD1 mouse model of chronic constriction injury-induced cold allodynia at 30 mg/kg, ip dosed at 5 weeks post surgery and measured 60 mins post dose
- Type: ADME, organism-based
recorded-metric: concentration at 1 h (µM)

structure_smiles=CC(C)COc1ncc(-c2cn(C)c3cc(C(=O)NS(C)(=O)=O)ccc23)cc1Cl assay_value=68

----------
- system-under-test: Sodium channel protein type 9 subunit alpha (Mus musculus)
- Sequence (Q62205 whole entry): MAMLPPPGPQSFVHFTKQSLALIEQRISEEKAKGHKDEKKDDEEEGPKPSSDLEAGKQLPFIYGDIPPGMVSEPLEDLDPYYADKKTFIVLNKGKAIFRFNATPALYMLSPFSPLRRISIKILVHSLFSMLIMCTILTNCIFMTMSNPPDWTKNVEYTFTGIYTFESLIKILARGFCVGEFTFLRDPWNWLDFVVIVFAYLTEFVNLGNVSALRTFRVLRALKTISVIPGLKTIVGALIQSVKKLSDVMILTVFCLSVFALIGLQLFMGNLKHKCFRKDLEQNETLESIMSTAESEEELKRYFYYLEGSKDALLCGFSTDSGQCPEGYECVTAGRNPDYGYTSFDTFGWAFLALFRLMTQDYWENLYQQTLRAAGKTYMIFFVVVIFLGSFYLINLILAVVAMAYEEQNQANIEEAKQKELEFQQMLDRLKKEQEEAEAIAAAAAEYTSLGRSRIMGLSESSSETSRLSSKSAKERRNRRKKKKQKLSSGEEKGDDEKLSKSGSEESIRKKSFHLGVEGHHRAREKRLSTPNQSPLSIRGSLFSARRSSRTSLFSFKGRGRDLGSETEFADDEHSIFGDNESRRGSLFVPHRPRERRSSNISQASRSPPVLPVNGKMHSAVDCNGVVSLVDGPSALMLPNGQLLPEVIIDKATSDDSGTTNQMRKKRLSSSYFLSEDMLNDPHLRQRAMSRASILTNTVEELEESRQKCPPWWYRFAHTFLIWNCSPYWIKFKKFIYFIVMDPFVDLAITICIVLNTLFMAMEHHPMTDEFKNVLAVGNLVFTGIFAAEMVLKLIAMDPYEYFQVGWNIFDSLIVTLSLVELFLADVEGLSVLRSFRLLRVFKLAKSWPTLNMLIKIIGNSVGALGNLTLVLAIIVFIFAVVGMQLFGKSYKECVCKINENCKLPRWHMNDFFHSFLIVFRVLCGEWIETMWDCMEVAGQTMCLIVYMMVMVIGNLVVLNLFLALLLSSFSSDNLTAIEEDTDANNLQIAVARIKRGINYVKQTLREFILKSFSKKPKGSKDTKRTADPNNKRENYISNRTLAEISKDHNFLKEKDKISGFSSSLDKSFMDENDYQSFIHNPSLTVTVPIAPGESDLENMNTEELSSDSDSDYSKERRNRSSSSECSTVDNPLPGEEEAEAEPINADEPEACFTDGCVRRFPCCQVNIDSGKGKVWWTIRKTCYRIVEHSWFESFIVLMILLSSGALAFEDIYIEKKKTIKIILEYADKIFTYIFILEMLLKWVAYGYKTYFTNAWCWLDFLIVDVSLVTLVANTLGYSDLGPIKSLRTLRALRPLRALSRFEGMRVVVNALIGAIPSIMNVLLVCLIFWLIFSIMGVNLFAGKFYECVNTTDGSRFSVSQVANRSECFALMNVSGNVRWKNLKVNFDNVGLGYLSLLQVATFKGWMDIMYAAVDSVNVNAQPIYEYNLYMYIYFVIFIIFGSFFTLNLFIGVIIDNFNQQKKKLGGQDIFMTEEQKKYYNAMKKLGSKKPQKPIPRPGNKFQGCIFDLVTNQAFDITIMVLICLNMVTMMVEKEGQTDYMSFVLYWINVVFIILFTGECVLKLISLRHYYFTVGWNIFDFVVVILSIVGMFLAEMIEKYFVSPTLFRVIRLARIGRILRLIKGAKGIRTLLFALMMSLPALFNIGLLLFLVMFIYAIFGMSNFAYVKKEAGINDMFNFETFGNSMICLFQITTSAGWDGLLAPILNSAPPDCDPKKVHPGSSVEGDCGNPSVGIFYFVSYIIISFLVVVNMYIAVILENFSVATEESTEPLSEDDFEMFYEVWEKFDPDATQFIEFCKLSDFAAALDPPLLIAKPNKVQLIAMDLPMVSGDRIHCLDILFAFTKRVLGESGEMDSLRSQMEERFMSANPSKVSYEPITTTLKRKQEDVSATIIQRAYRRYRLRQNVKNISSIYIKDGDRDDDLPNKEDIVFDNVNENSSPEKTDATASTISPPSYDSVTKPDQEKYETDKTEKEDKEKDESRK
- protocol-notes: Inhibition of Nav1.7 in mouse DRG neurons at -70 mV holding potential by patch clamp electrophysiology method
recorded-metric: IC50 (nM)

structure_smiles=Cn1cc(-c2ccc(C(F)(F)F)cc2)c2cc(F)c(C(=O)NS(=O)(=O)C3CC3)cc21 recorded_metric=IC50 result_units=nM assay_value=5
structure_smiles=CC(C)COc1ncc(-c2nn(C)c3cc(C(=O)NS(C)(=O)=O)ccc23)cc1Cl recorded_metric=IC50 result_units=nM assay_value=12
structure_smiles=CC(C)COc1ncc(-c2cn(C)c3cc(C(=O)NS(C)(=O)=O)ccc23)cc1Cl recorded_metric=IC50 result_units=nM assay_value=11
structure_smiles=CC(C)COc1ccc(-c2cn(C)c3cc(C(=O)NS(=O)(=O)C4CC4)c(F)cc23)cn1 recorded_metric=IC50 result_units=nM assay_value=24
structure_smiles=Cn1cc(-c2ccc(C(F)F)cc2)c2cc(F)c(C(=O)NS(=O)(=O)C3CC3)cc21 recorded_metric=IC50 result_units=nM assay_value=12
structure_smiles=CC(C)COc1ccc(-c2cn(C)c3cc(C(=O)NS(C)(=O)=O)c(F)cc23)cn1 recorded_metric=IC50 result_units=nM assay_value=14
